biological target: human orexin 2 receptor (Homo sapiens, UniProt O43614); construct: stably expressing the full-length human orexin 2 receptor; expressed in transfected cells; host or cells: CHO-K1 (CHO-K1/hOX2), co-expressing aequorin; experiment: Assay B: In vitro testing of OX2R potency: OX2R IP1 (HTRF, CHO-K1/hOX2 cells, Orexin A as agonist); type: cell-based; settings: Orexin A 0.5 nM
Sequence (O43614 whole entry): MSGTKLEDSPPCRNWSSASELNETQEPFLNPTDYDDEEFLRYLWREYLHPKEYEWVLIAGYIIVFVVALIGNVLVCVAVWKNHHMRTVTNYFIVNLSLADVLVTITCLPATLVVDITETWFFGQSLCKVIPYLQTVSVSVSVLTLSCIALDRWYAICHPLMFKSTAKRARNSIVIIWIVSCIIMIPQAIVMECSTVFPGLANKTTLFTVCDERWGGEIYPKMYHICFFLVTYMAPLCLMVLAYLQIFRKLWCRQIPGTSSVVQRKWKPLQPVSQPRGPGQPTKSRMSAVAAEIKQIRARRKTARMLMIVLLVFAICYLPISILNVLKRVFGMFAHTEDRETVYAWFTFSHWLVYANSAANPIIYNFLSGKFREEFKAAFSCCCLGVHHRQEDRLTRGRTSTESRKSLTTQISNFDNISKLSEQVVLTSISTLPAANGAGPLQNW
The following compounds are shown together with reported Kb values.
Endpoint Label: Kb (nM)

Structure As Smiles: CCN(C(=O)c1cccc(F)c1-n1nccn1)[C@@H](C)COc1ncc(C(F)(F)F)cc1F
Target System: human orexin 2 receptor (Homo sapiens, UniProt O43614)
Endpoint Label: Kb
Meas Value: 69
--
Structure As Smiles: CCN(C(=O)c1cc(C#N)ccc1-n1nccn1)[C@@H](C)COc1ncc(C(F)(F)F)cc1F
Target System: human orexin 2 receptor (Homo sapiens, UniProt O43614)
Endpoint Label: Kb
Meas Value: 203
--
Structure As Smiles: CCN(C(=O)c1ccccc1-c1ccn(C)c(=O)c1)[C@@H](C)COc1ccc(C(F)(F)F)cn1
Target System: human orexin 2 receptor (Homo sapiens, UniProt O43614)
Endpoint Label: Kb
Meas Value: 1670

----------
Target: human Orexin 1 receptor (Homo sapiens)
Construct: stably expressing the full-length human Orexin 1 receptor; expressed in transfected cells; host or cells: CHO-K1 (CHO-K1/hOX1), co-expressing aequorin
Sequence (O43613 1-425): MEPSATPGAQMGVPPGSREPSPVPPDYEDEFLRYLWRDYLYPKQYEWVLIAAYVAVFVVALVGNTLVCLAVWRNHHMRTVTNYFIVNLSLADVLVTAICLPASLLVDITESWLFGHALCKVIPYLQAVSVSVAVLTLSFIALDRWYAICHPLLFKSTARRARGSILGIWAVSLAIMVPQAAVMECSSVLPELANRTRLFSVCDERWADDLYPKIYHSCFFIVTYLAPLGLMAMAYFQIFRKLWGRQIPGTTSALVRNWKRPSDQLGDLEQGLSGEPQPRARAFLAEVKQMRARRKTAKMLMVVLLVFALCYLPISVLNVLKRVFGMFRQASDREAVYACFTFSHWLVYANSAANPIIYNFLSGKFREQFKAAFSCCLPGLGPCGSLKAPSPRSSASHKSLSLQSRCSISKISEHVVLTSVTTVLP
Assay: Assay A: In vitro testing of OX1R potency: OX1R IP1 (HTRF, CHO-K1/hOX1 cells, Orexin A as agonist)
Format: cell-based
Conditions: Orexin A 50 nM; read-out: OX1R Kb (Orexin A concentration used)
The label depends only on Kb: YES if it is at least 0.4 nM, NO if it is smaller.

Structure As Smiles: CCN(C(=O)c1cccc(F)c1-n1nccn1)[C@@H](C)COc1ncc(Br)cc1F
Class Assignment: YES

Structure As Smiles: CCN(C(=O)c1cc(F)cc(F)c1-n1nccn1)[C@@H](C)COc1ccc(C(F)(F)F)cn1
Class Assignment: NO

Structure As Smiles: CCN(C(=O)c1cc(F)cc(F)c1-n1nccn1)[C@@H](C)COc1ccc(Cl)cn1
Class Assignment: YES

Structure As Smiles: CCN(C(=O)c1ccccc1-n1nccn1)[C@@H](C)COc1ccc(Cl)cn1
Class Assignment: YES

Structure As Smiles: CCN(C(=O)c1cccc(C)c1-c1nnc(C)o1)[C@@H](C)COc1ccc(Cl)cn1
Class Assignment: YES

Structure As Smiles: CCN(C(=O)c1cc(C#N)ccc1-n1nccn1)[C@@H](C)COc1ccc(C(F)(F)F)cn1
Class Assignment: YES

Structure As Smiles: CCN(C(=O)c1ccc(F)cc1-n1nccn1)[C@@H](C)COc1ncc(C(F)(F)F)cc1F
Class Assignment: YES

Structure As Smiles: CCN(C(=O)c1c(F)cccc1-c1ncccn1)[C@@H](C)COc1ccc(C(F)(F)F)cn1
Class Assignment: NO

Structure As Smiles: CCN(C(=O)c1cccc(F)c1-n1nccn1)[C@@H](C)COc1ccc(Cl)cn1
Class Assignment: YES

Structure As Smiles: CCN(C(=O)c1cc(C#N)ccc1-n1nccn1)[C@@H](C)COc1ncc(C(F)(F)F)cc1F
Class Assignment: YES

Structure As Smiles: CCN(C(=O)c1c(-n2nccn2)ccc(C)c1F)[C@@H](C)COc1ncc(C(F)(F)F)cc1F
Class Assignment: NO

Structure As Smiles: CCN(C(=O)c1cc(C)ccc1-c1ncccn1)[C@@H](C)COc1ccc(C(F)(F)F)cn1
Class Assignment: NO

Structure As Smiles: CCN(C(=O)c1c(F)cccc1-n1nccn1)[C@@H](C)COc1ncc(C(F)(F)F)cc1F
Class Assignment: YES

Structure As Smiles: CCN(C(=O)c1ccccc1-c1cncc(C#N)c1)[C@@H](C)COc1ccc(C(F)(F)F)cn1
Class Assignment: YES

Structure As Smiles: CCN(C(=O)c1cc(F)cc(F)c1-n1nccn1)[C@@H](C)COc1ncc(C(F)(F)F)cc1F
Class Assignment: YES

Structure As Smiles: CCN(C(=O)c1cc(F)ccc1-n1nccn1)[C@@H](C)COc1ncc(C(F)(F)F)cc1F
Class Assignment: YES

Structure As Smiles: CCN(C(=O)c1ccc(OC)cc1-n1nccn1)[C@@H](C)COc1ncc(C(F)(F)F)cc1F
Class Assignment: YES

Structure As Smiles: CCN(C(=O)c1cccc(F)c1-c1ncccn1)[C@@H](C)COc1ccc(Br)cn1
Class Assignment: NO

Structure As Smiles: CCN(C(=O)c1ccc(F)c(F)c1-n1nccn1)[C@@H](C)COc1ncc(C(F)(F)F)cc1F
Class Assignment: YES

Structure As Smiles: CCN(C(=O)c1cc(OC)ccc1-n1nccn1)[C@@H](C)COc1ccc(C(F)(F)F)cn1
Class Assignment: NO

Structure As Smiles: CCN(C(=O)c1cccc(Cl)c1-n1nccn1)[C@@H](C)COc1ccc(C(F)(F)F)cn1
Class Assignment: NO

Structure As Smiles: CCN(C(=O)c1cc(F)ccc1-c1ncccn1)[C@@H](C)COc1ccc(C(F)(F)F)cn1
Class Assignment: NO

Structure As Smiles: CCN(C(=O)c1cccc(C)c1-c1nnc(C)o1)[C@@H](C)COc1ccc(C(F)(F)F)cn1
Class Assignment: NO

Structure As Smiles: CCN(C(=O)c1cccc(F)c1-c1ncccn1)[C@@H](C)COc1ccc(C(F)(F)F)cn1
Class Assignment: NO

Structure As Smiles: CCN(C(=O)c1ccccc1-n1nccn1)[C@@H](C)COc1ccc(C(F)(F)F)cn1
Class Assignment: NO

Structure As Smiles: CCN(C(=O)c1cccc(Cl)c1-n1nccn1)[C@@H](C)COc1ccc(OC(F)(F)F)cn1
Class Assignment: NO
